# System: RARa homodimer (NR concentration 270 nM)
# ASSAY PROTOCOL: PBM binding z-score (relative to random genomic background probes); higher = stronger binding; sequences stand for … in GC…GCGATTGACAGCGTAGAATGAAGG
ENDPOINT NAME: PBM binding z-score
Write the value as a bare number.

QUERY SEQUENCE	PBM binding z-score
ACTATTAGTTGAGACGAAGGCAACCGATAGGTTG	0.662
GCTTGTAGCTCAAGGTTAAGAAAGACTAAGCTAA	-0.601
ACAGACAGGTTAGTGAAGGTAACTCAGCTGGACG	0.0654

Consider the record given below.
-- ask // lookup PBM binding z-score for GCGACAGGGGCATCAGCAGGTTACCATAACTTAA
-- reply -0.68

* * *

Each entry below carries its recorded PBM binding z-score.
# System: PPARg DBDmut:RXRa IVT, anti-PPARg (DBD mutation: PPARg1 K132A/R137A, NR concentration 270 nM, RXRa partner concentration 90 nM)
# ASSAY PROTOCOL: PBM binding z-score (relative to random genomic background probes); higher = stronger binding; sequences stand for … in GC…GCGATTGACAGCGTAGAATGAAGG
Write the value as a bare number.

Recorded PBM binding z-score, per entry:
QUERY SEQUENCE	PBM binding z-score
TCTTGTAAATCAATAGAGGTTAAGAAAGTGCGCT	0.946
TCATATAGGTAAATGTGAAAGTCGAACGATATGA	1.69
TAGCCTAGATCATTCAGGGGCCAGTATAGAAAGC	-0.343

-- ask // lookup PBM binding z-score for GTACCACGGTGAATAGGTCGTTGATGAGTAGGCG
-- reply -0.572

-- ask // lookup PBM binding z-score for ATCTCTCGGTAACCAAGTTCAGTGAATGCCGAAC
-- reply 0.5

-- ask // lookup PBM binding z-score for TTACCAAGGTGAGCTGAGGTGGTTGATCCAACTC
-- reply -0.51

-- ask // lookup PBM binding z-score for ATCTCTAGGTAACCAAGTTCAGTCAATGCCGAAC
-- reply 0.988

-- ask // lookup PBM binding z-score for TCTAGCAGGCCACAGGGTCACTCAAGAGGTACGG
-- reply 0.0342

-- ask // lookup PBM binding z-score for AGTACAGGGTCACTAGGCCAGAGTAGGTACGAAT
-- reply 0.92

-- ask // lookup PBM binding z-score for CGAACTAGGTCATTGACAGGAGAGTGAATAGTAA
-- reply 2.36

-- ask // lookup PBM binding z-score for GCTCCTAGGTCAACTGATGGTCAGCTAAAGCTCG
-- reply -0.903

-- ask // lookup PBM binding z-score for TCGTGTAGATCAACAGGAGGTTAAGAAAGATCGA
-- reply 0.363

-- ask // lookup PBM binding z-score for AGAAAGAGGTTATACGTAGATCAGGGAAGAAAGT
-- reply 0.646

-- ask // lookup PBM binding z-score for GGAACGAGGCCAAAGTTGATAGCATCTGTCGACG
-- reply -0.146

-- ask // lookup PBM binding z-score for TCAAATAGGTAAAGGTGAAAGTCGAACGATATGA
-- reply 1.88

-- ask // lookup PBM binding z-score for ACTTACGGGTTAACGAGGTTATAGCACGCGTATA
-- reply 0.886

* * *

# System: PPARg:RXRa (NR concentration 180 nM, RXRa partner concentration 90 nM)
# ASSAY PROTOCOL: PBM binding z-score (relative to random genomic background probes); higher = stronger binding; sequences stand for … in GC…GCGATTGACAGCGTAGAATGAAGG
ENDPOINT NAME: PBM binding z-score
Write the value as a bare number.

QUERY SEQUENCE	TARGET	PBM binding z-score
AGAACGAGGGCAATGAGTTGATGGCACGGGTGGC	PPARg:RXRa (NR concentration 180 nM, RXRa partner concentration 90 nM)	1.29
TCTATTAGTTGATAAGGGCAACCGAAACAGCGGA	PPARg:RXRa (NR concentration 180 nM, RXRa partner concentration 90 nM)	0.322
TGAATGAGGTTATAAGCTCAGGGAACGTTGCAAA	PPARg:RXRa (NR concentration 180 nM, RXRa partner concentration 90 nM)	0.877
AATACAGGGTCACAAGGCCAGAGTAGGTACGAAT	PPARg:RXRa (NR concentration 180 nM, RXRa partner concentration 90 nM)	7.38
GCTAGTTGGTCAGTAAAAGGTCACACCCCGGTCG	PPARg:RXRa (NR concentration 180 nM, RXRa partner concentration 90 nM)	2.69
ACTAGTTGGTCAGCTGAGGTCAAACACAATTCGG	PPARg:RXRa (NR concentration 180 nM, RXRa partner concentration 90 nM)	1.65
GCGACTGGAGCATCAGCAGGTTACCATAACTTAA	PPARg:RXRa (NR concentration 180 nM, RXRa partner concentration 90 nM)	0.329
CAAACTAGGTCAGAACAGGACAGTGAAGGATGAT	PPARg:RXRa (NR concentration 180 nM, RXRa partner concentration 90 nM)	5.81

-- ask // lookup PBM binding z-score for ACAGACAGGTGAGTGAAGGTAACTTAGCTGGACG
-- reply 0.693

-- ask // lookup PBM binding z-score for AGTACGAGGGCACGCTGAGTTGATAGCAGAGTAG
-- reply 1.26

-- ask // lookup PBM binding z-score for CAAACTAGGTCACCTGAAGGTCAAAGTCCGCATG
-- reply 9.15

-- ask // lookup PBM binding z-score for ACTATTAGTTGAGAAGAGGGCAACCGATAGGTTG
-- reply 0.56

* * *

# Test system: PPARg:RXRa 30nM:10nM, anti-RXR (NR concentration 30 nM, RXRa partner concentration 10 nM)
# ASSAY PROTOCOL: PBM binding z-score (relative to random genomic background probes); higher = stronger binding; sequences stand for … in GC…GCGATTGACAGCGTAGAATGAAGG
The threshold is inclusive: PBM binding z-score of exactly 1 counts as y; values below receive n.

Example results:
QUERY SEQUENCE	GROUP
ATCGAAAGGTCGAACGTGAGTATACCCACCCGAA	y
CAAACTAGGCCACGAAAGGTCAAAGTCGAATGAC	y

-- ask Check this sequence for PBM binding z-score at or above 1: ATCTCTAGGTAAGACTCCGTTCAGTGAAGAACGC
-- reply n

-- ask Check this sequence for PBM binding z-score at or above 1: CGTCCAACGTCAATGCTAGGTCAGTGAAAGCATT
-- reply n

-- ask Check this sequence for PBM binding z-score at or above 1: CCTACCAGGCCAGGGTCACTCAAGCATTTCGCTT
-- reply n

-- ask Check this sequence for PBM binding z-score at or above 1: GGAACGAGGGCCTTCGAGTTGATAGCATGGCGAT
-- reply n

-- ask Check this sequence for PBM binding z-score at or above 1: ACAGACAGGTGATGAAGGTAACTCATGCTATCAT
-- reply n

-- ask Check this sequence for PBM binding z-score at or above 1: CGAACTGGGTCATTGACAGGACAGTGAATAGTAA
-- reply y

-- ask Check this sequence for PBM binding z-score at or above 1: ATCGAAAGGTCGTGAGTTGAGTATACAGAAAGGC
-- reply y

-- ask Check this sequence for PBM binding z-score at or above 1: AGAACTAGGGCAATGAGTTGATAGCACGGGTGGC
-- reply y

-- ask Check this sequence for PBM binding z-score at or above 1: CAAGCTAGGTCACCGGAAGGTCAAAGTCCGCATG
-- reply y

-- ask Check this sequence for PBM binding z-score at or above 1: CCTAGCAGGCCCGGGTCACTCAAGCATTTCGCTT
-- reply n

-- ask Check this sequence for PBM binding z-score at or above 1: ATCGAAAGATCGACGAGGTGAGTATACACCGTTT
-- reply n

-- ask Check this sequence for PBM binding z-score at or above 1: CGTCCAACGTCAGAGAGGTCAGTGAATGCCGAGT
-- reply n

-- ask Check this sequence for PBM binding z-score at or above 1: GCTGCTAGGTCAACTGATGGTCAGCAAAAGCTCG
-- reply n

-- ask Check this sequence for PBM binding z-score at or above 1: CCTAGCAGGCCAATCTGGTTCACTCAAGGCTTGA
-- reply n

-- ask Check this sequence for PBM binding z-score at or above 1: TCTTGTAGATCAAGCAGGCTAAGAAAGCCTGAGT
-- reply y

-- ask Check this sequence for PBM binding z-score at or above 1: CCGACTGGGGCAGAGAGGTTACCATACCATCCGG
-- reply n

-- ask Check this sequence for PBM binding z-score at or above 1: ATCTCTAGGTCAAGATAGTTCAGTGAATGCAAAT
-- reply y

-- ask Check this sequence for PBM binding z-score at or above 1: TCTCGGAGGACACCAAGGTCAGAGCTTTCCAGAG
-- reply y

-- ask Check this sequence for PBM binding z-score at or above 1: CCGACTCGGGCAAAGGTTACCATACTCAGTACGA
-- reply y

-- ask Check this sequence for PBM binding z-score at or above 1: CGAAGGAGGGCATGAGTTGATAGCAAATGCCGAT
-- reply n

-- ask Check this sequence for PBM binding z-score at or above 1: TCTCGGTGGACACGAAAGGTCAGAGCTCGACATC
-- reply y

-- ask Check this sequence for PBM binding z-score at or above 1: GCTATTAGTTGAAAGGGCAATCGAATGATTCTCG
-- reply y

-- ask Check this sequence for PBM binding z-score at or above 1: CCTAGTTGGTCCGGAGGTCACACACCGGATATGA
-- reply y
